B1: TBX5 (parent)
chain: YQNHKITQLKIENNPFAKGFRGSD

Variants of: B1
Test: protein stability index of a GFP-peptide fusion (GPS, HEK-293T) (PSI 1-6); higher = more stable;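 further: lentivirally expressed fusions sorted by FACS into six bins by GFP to DsRed ratio, PSI derived from sequencing read proportions per bin multiplied by bin number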
Details: c terminus: a fixed tail appended
Listed here are variants together with their documented protein stability index.
The answer should be written as a number, with no unit following it.

Solved entries (count: 5):
>>> df
                        seq_string  quantitative_readout
0   YQNHKILQLKIENNPFAKGFRGSD [T7L]                   2.3
1  YQNHKITQLKIENNPFAKQFRGSD [G19Q]                   3.1
2   YQNHCITQLKIENNPFAKGFRGSD [K5C]                  2.15
3  YQNHKITQLKIENNPFAKGFLGSD [R21L]                  2.15
4   YQNHKITQIKIENNPFAKGFRGSD [L9I]                  2.73

Inquiry: // returns reported protein stability index for input YQNHPITQLKIENNPFAKGFRGSD [K5P]
Reply text: 2.77

Inquiry: Also need YQNHKITQLKIENNPFAKGFRMSD [G22M] , thanks.
Reply text: 2.49

Inquiry: YQNHKITQLKIENNPFANGFRGSD [K18N] , same question.
Reply text: 2.23

Inquiry: For YQNHKITQLKIENQPFAKGFRGSD [N14Q] then?
Reply text: 2.94

Inquiry: Same lookup for YQNHKITQLKIMNNPFAKGFRGSD [E12M] , please.
Reply text: 2.35

Inquiry: Try the variant YQNHKITQLKIENNPFAKGFRGKD [S23K]
Reply text: 2.64

Inquiry: What do we get for YQNCKITQLKIENNPFAKGFRGSD [H4C] ?
Reply text: 1.67

Inquiry: How about this variant: YQNHKITQLKIENNPFAKGARGSD [F20A]
Reply text: 3.41

Inquiry: And for YQNHKITQLKIENNPFAKGFRGSM [D24M] ?
Reply text: 2.43

Inquiry: Check YQNHKIKQLKIENNPFAKGFRGSD [T7K] too.
Reply text: 3.31
